Biological target: NUDT7 (Homo sapiens, UniProt P0C024)
Construct: residues 14-235, E. coli, pNIC28-Bsa4, N-terminal His6 tag removed by TEV, construct 26672 Da
Sequence (P0C024 14-235): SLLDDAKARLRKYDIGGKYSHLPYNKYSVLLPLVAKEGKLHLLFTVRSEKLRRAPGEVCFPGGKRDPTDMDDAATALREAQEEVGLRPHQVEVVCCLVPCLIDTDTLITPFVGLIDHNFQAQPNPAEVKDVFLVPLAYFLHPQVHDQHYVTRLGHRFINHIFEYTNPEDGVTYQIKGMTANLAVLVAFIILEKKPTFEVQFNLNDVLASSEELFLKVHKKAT
Parameters: Intact protein LC/MS covalent labelling, fragments in pools of five, 200 uM each, 4 °C
Settings: 24 h, 4 °C, pool of five; 200 µM; covalent
Catalogue of NUDT7 readings, one per entry.

{"MOLECULE": "Cc1csc(N(C(=O)CCl)c2ccccc2)n1 [PCM-0102265]", "NUDT7": 0.19}
{"MOLECULE": "CS(=O)(=O)N1CCN(C(=O)CCl)CC1 [PCM-0102417]", "NUDT7": 0}
{"MOLECULE": "COc1ccc2c(c1)CCCN2C(=O)CCl [PCM-0102325]", "NUDT7": 0.12}
{"MOLECULE": "C=CC(=O)N1CCCC(C(C)NC(=O)NC(C)(C)C)C1 (centres unmarked) [PCM-0102723]", "NUDT7": 0}
{"MOLECULE": "N#Cc1c2c(n(-c3ccccc3)c1NC(=O)CCl)CCCC2 [PCM-0102107]", "NUDT7": 0.46}
{"MOLECULE": "C=CC(=O)N1CCN(C(C)C)c2ccccc2C1 [PCM-0102888]", "NUDT7": 0}
{"MOLECULE": "C=CC(=O)Nc1ccc(Cl)c(C#N)c1 [PCM-0102453]", "NUDT7": 0}
{"MOLECULE": "Cc1ccc(-c2nnc(C)[nH]2)c(NC(=O)CCl)c1 [PCM-0102775]", "NUDT7": 0.13}
{"MOLECULE": "Cc1ccc(C)c(NC(=O)CCl)c1 [PCM-0102398]", "NUDT7": 0}
{"MOLECULE": "O=C(CCl)NC(=O)NCC1COc2ccccc2O1 (centres unmarked) [PCM-0102092]", "NUDT7": 0}
{"MOLECULE": "CN(Cc1ccc(Cl)cc1)C(=O)CCl [PCM-0102344]", "NUDT7": 0.34}
{"MOLECULE": "CCC(C)(C)NC(=O)CCl [PCM-0102161]", "NUDT7": 0}
{"MOLECULE": "Cc1ccccc1CC(=O)NNC(=O)CCl [PCM-0102829]", "NUDT7": 0}
{"MOLECULE": "O=C(CCl)N1CCN(S(=O)(=O)c2ccc(F)c(F)c2)CC1 [PCM-0102361]", "NUDT7": 0}
{"MOLECULE": "C=CC(=O)N1CCCN(c2ccc(-c3ccccc3)nn2)CC1 [PCM-0102964]", "NUDT7": 0}
{"MOLECULE": "O=C(CCl)Nc1ccc2c(c1)CCC2 [PCM-0102662]", "NUDT7": 0.12}
{"MOLECULE": "C=CC(=O)N1CCC2(CC1)CNC(=O)C2 [PCM-0102690]", "NUDT7": 0}
{"MOLECULE": "O=C(CCl)Nc1ccc(N2CCCCC2)cc1 [PCM-0102612]", "NUDT7": 0}
{"MOLECULE": "C=CC(=O)NCc1cnn2ccccc12 [PCM-0102561]", "NUDT7": 0}
{"MOLECULE": "O=C(CCl)Nc1ccc(Cl)cc1 [PCM-0102120]", "NUDT7": 0.18}
{"MOLECULE": "CCC1CN(C(=O)CCl)CCO1 (centres unmarked) [PCM-0102436]", "NUDT7": 0}
{"MOLECULE": "CC1CCCN(C(=O)C2CCN(C(=O)CCl)CC2)C1 (centres unmarked) [PCM-0102933]", "NUDT7": 0}
{"MOLECULE": "C=CC(=O)NCc1snnc1C [PCM-0103079]", "NUDT7": 0}

Values were extracted from paper PMC6556873.
